assay-remarks: background-corrected fluorescence of 3'-dye-labeled ssDNA relative to brightest sequence (3'-GCGCG) (fraction); higher = brighter dye fluorescence (less quenching)
measurement-setup: dye: Cy5 (3' terminal)
Here, each record is paired with measured background-corrected fluorescence data.
No unit in the answer, please; the number alone is enough.

# annotated cases, reported background-corrected fluorescence shown
# record-sequence, background-corrected fluorescence
rows = [
    ("TTTTTGCATCATCATGCTCATTTTTTTTTTTTTTTTGGAG [GAGGT]", 0.494),
    ("TTTTTTCAGCATGCTCATCATTTTTTTTTTTTTTTGTAGG [GGATG]", 0.51),
]

For TTTTTTCATGAGCATCAGCATTTTTTTTTTTTTTTGCTGT [TGTCG] , write its background-corrected fluorescence.
0.458

For TTTTTTGATCAGCATGATCATTTTTTTTTTTTTTTCGTCG [GCTGC] , write its background-corrected fluorescence.
0.463
